- TARGET OR TEST SYSTEM: human OPRM1 (μ, MOR) (Homo sapiens (Human), UniProt P35372)
- EXPERIMENT SUMMARY: cell-based
- Type: cell-based
- EXPERIMENTAL CONTEXT: OPRM1, read-out: β-Arrestin Emax
We begin with a simple list: items and their reported Emax.
Return type: number; implicit unit %.

INSERT INTO results (molecule, readout_kind, output_unit, value_measured) VALUES
  ('CN(C)CC1CN(Cc2ccc(F)cc2Cl)CCC1(O)c1cccc(C(N)=O)c1 (centres unmarked) [(6)]', 'Emax', '%', 40),
  ('CN(C)CC1CN(CCc2ccccc2)CCC1(O)c1cccc(C(N)=O)c1 (centres unmarked) [(9)]', 'Emax', '%', 18);

Here is the next item to consider.
### Prompt Could you share what Emax was measured for C[C@@H](NC(=O)[C@@H](N)Cc1ccc(O)cc1)C(=O)NCC(=O)N(C)[C@@H](Cc1ccccc1)C(=O)NCCO [DAMGO, H-Tyr-D-Ala-Gly-NMe-Phe-Gly-OH, reference compound] , tested on human OPRM1 (μ, MOR) (Homo sapiens (Human), UniProt P35372)?
### Response 98

====

- TARGET OR TEST SYSTEM: MOR (Homo sapiens (Human))
- Assay type: cell-based
Rule: Bias Factor (ΔRA of compound relative to ΔRA of DAMGO) × 10 under -4 gives Criterion not met, otherwise Criterion met.

Past entries and their recorded results:
INSERT INTO assay_data (compound, assigned_class) VALUES
  ('CN(C)C[C@@H]1CN(Cc2ccc(F)cc2Cl)CC[C@@]1(O)c1cccc(C(N)=O)c1 (single isomer, unassigned; ent-b) [Ent-B-syn-(6)]', 'Criterion met'),
  ('CN(C)CC1CN(CCc2ccc(O)cc2)CCC1(O)c1cccc(C(N)=O)c1 (stereo not shown)', 'Criterion met'),
  ('CN(C)CC1CN(CCCc2ccccc2)CCC1(O)c1cccc(C(N)=O)c1 (stereo not shown)', 'Criterion not met'),
  ('CN(C)CC1CN(Cc2ccc(F)cc2Cl)CCC1(O)c1cccc(C(N)=O)c1 (stereo not shown)', 'Criterion met'),
  ('CN(C)C[C@H]1CN(Cc2ccc(F)cc2Cl)CC[C@]1(O)c1cccc(C(N)=O)c1 (single isomer, unassigned; ent-a) [Ent-A-syn-(6)]', 'Criterion met'),
  ('CN(C)CC1CN(CCc2ccccc2)CCC1(O)c1cccc(C(N)=O)c1 (stereo not shown)', 'Criterion not met');

### Prompt Check this compound for Bias Factor (ΔRA of compound relative to ΔRA of DAMGO) × 10 at or above -4: CN(C)CC1CN(Cc2ccsc2)CCC1(O)c1cccc(C(N)=O)c1 (stereo not shown)
### Response Criterion met

====

Listing: Emax of selected compounds
- TARGET OR TEST SYSTEM: human OPRM1 (μ, MOR) (Homo sapiens (Human))
- EXPERIMENT SUMMARY: cell-based
- Assay type: cell-based
- EXPERIMENTAL CONTEXT: OPRM1, read-out: cAMP Emax
Answer in %, number only, no unit symbol.

Worked cases, Emax given:
INSERT INTO measurements (compound, output_unit, value_measured) VALUES
  ('COc1ccc(CCN2CCC(O)(c3cccc(C(N)=O)c3)C(CN(C)C)C2)cc1 (stereo not shown) [(17)]', '%', 84),
  ('CN(C)CC1CN(Cc2ccsc2)CCC1(O)c1cccc(C(N)=O)c1 (stereo not shown) [(11)]', '%', 112),
  ('CN(C)CC1CN(CCc2ccsc2)CCC1(O)c1cccc(C(N)=O)c1 (stereo not shown) [(15)]', '%', 95);

### Prompt I am curious: what Emax value has been reported for CN(C)CC1CN(CCCc2ccccc2)CCC1(O)c1cccc(C(N)=O)c1 (stereo not shown) [(20)] ?
### Response 103

### Prompt # iterate: CN(C)CC1CN(CCc2ccc(O)cc2)CCC1(O)c1cccc(C(N)=O)c1 (stereo not shown) [(18)]
### Response 103

### Prompt Same question for CN(C)CC1CN(CCc2ccccc2)CCC1(O)c1cccc(C(N)=O)c1 (stereo not shown) [(9)] please.
### Response 118

### Prompt Now give it for CN(C)CC1CN(Cc2ccc(F)cc2Cl)CCC1(O)c1cccc(C(N)=O)c1 (stereo not shown) [(6)] too.
### Response 107

====

- TARGET OR TEST SYSTEM: human OPRM1 (μ, MOR) (Homo sapiens (Human), UniProt P35372)
- EXPERIMENT SUMMARY: cell-based
- Format: cell-based
- EXPERIMENTAL CONTEXT: PathHunter human OPRM1 Arrestin CHO-K1 cell line; read-out: β-Arrestin EC50
# reported pEC50; entries follow
Please treat pEC50 as minus the base-10 logarithm of the molar concentration.

Some solved cases for reference:
INSERT INTO results (compound, target_or_test_system, readout_kind, value_measured) VALUES
  ('CN(C)C[C@@H]1CN(Cc2ccc(F)cc2Cl)CC[C@@]1(O)c1cccc(C(N)=O)c1 (single isomer, unassigned; ent-b) [Ent-B-syn-(6)]', 'human OPRM1 (μ, MOR) (Homo sapiens (Human), UniProt P35372)', 'pEC50', 5.44),
  ('CN(C)CC1CN(CCCc2ccccc2)CCC1(O)c1cccc(C(N)=O)c1 (stereo not drawn) [(20)]', 'human OPRM1 (μ, MOR) (Homo sapiens (Human), UniProt P35372)', 'pEC50', 6.57),
  ('CN(C)C[C@H]1CN(Cc2ccc(F)cc2Cl)CC[C@]1(O)c1cccc(C(N)=O)c1 (single isomer, unassigned; ent-a) [Ent-A-syn-(6)]', 'human OPRM1 (μ, MOR) (Homo sapiens (Human), UniProt P35372)', 'pEC50', 5.50),
  ('CN(C)CC1CN(Cc2ccsc2)CCC1(O)c1cccc(C(N)=O)c1 (stereo not drawn) [(11)]', 'human OPRM1 (μ, MOR) (Homo sapiens (Human), UniProt P35372)', 'pEC50', 4.97),
  ('CN(C)CC1CN(Cc2ccc(F)cc2Cl)CCC1(O)c1cccc(C(N)=O)c1 (stereo not drawn) [(6)]', 'human OPRM1 (μ, MOR) (Homo sapiens (Human), UniProt P35372)', 'pEC50', 5.59);

### Prompt Form field: reported pEC50 of CN(C)CC1CN(CCc2ccc(O)cc2)CCC1(O)c1cccc(C(N)=O)c1 (stereo not drawn) [(18)]
### Response 5.51

### Prompt How about this compound: CN(C)CC1CN(CCc2ccccc2)CCC1(O)c1cccc(C(N)=O)c1 (stereo not drawn) [(9)]
### Response 6.08

====

- TARGET OR TEST SYSTEM: human OPRM1 (μ, MOR) (Homo sapiens (Human), UniProt P35372)
- EXPERIMENT SUMMARY: cell-based
- Type: cell-based
- EXPERIMENTAL CONTEXT: PathHunter human OPRM1 Arrestin CHO-K1 cell line; read-out: cAMP EC50
Below is a list of entries, each paired with its recorded log10 EC50 value.
Give log10 of EC50, with EC50 taken in nM.

Consider the reported log10 EC50 for these compounds:
INSERT INTO results (compound, target_or_test_system, value_measured) VALUES
  ('CN(C)C[C@@H]1CN(Cc2ccc(F)cc2Cl)CC[C@@]1(O)c1cccc(C(N)=O)c1 (single isomer, unassigned; ent-b) [Ent-B-syn-(6)]', 'human OPRM1 (μ, MOR) (Homo sapiens (Human), UniProt P35372)', 2.67),
  ('CN(C)CC1CN(CCc2ccccc2)CCC1(O)c1cccc(C(N)=O)c1 (stereo not drawn) [(9)]', 'human OPRM1 (μ, MOR) (Homo sapiens (Human), UniProt P35372)', 1.53),
  ('CN(C)CC1CN(Cc2ccc(F)cc2Cl)CCC1(O)c1cccc(C(N)=O)c1 (stereo not drawn) [(6)]', 'human OPRM1 (μ, MOR) (Homo sapiens (Human), UniProt P35372)', 2.01),
  ('CN(C)CC1CN(CCc2ccsc2)CCC1(O)c1cccc(C(N)=O)c1 (stereo not drawn) [(15)]', 'human OPRM1 (μ, MOR) (Homo sapiens (Human), UniProt P35372)', 1.83),
  ('CN(C)CC1CN(CCc2ccc(O)cc2)CCC1(O)c1cccc(C(N)=O)c1 (stereo not drawn) [(18)]', 'human OPRM1 (μ, MOR) (Homo sapiens (Human), UniProt P35372)', 2.20);

### Prompt If you can, please state the reported log10 EC50 value of CN(C)CC1CN(Cc2ccsc2)CCC1(O)c1cccc(C(N)=O)c1 (stereo not drawn) [(11)] .
### Response 2.74

### Prompt Same thing, different compound: CN(C)C[C@H]1CN(Cc2ccc(F)cc2Cl)CC[C@]1(O)c1cccc(C(N)=O)c1 (single isomer, unassigned; ent-a) [Ent-A-syn-(6)]
### Response 2.21

### Prompt Input COc1ccc(CCN2CCC(O)(c3cccc(C(N)=O)c3)C(CN(C)C)C2)cc1 (stereo not drawn) [(17)]
### Response 2.67

### Prompt Also, CN(C)CC1CN(CCCc2ccccc2)CCC1(O)c1cccc(C(N)=O)c1 (stereo not drawn) [(20)] please.
### Response 1.00
